test: Rat PK study #3 (ABBV-744 IV 1 mg/kg and PO 5 mg/kg); format: in vivo, SD rats; conditions: male, Sprague-Dawley, rat, plasma, iv, 1 mg/kg, SD rats, IV 1 mg/kg, DMSO/PEG-400/Milli-Q water formulation, mean of 3 animals
readout.label: AUC(0-t) (ng·h/mL)
Numbers only, in ng·h/mL.

For CCNC(=O)c1cc2c(-c3cc(C(C)(C)O)ccc3Oc3c(C)cc(F)cc3C)cn(C)c(=O)c2[nH]1 [ABBV-744] , write its AUC(0-t).
668

====

test: Dog PK study #1 (Compound A IV and PO, propylene glycol formulation); format: in vivo, beagle dogs; settings: beagle, dog, plasma, iv, 1 mg/kg, IV 1 mg/kg; mean
readout.label: AUC
Please answer using the number first and the unit second.

For `Cn1cc(-c2ccccc2)c(-c2cn(C)c(=O)c3[nH]c(-c4cnn(C(F)(F)F)c4)cc23)cc1=O` , write its AUC.
5600 ng·h/mL

====

experiment: CIA study: pharmacokinetics / plasma concentration after oral administration; format: in vivo, Lewis rats; conditions: Lewis, rat, plasma, po, 3 mg/kg, oral 3 mg/kg, day 21, time 1; read-out: Mean Concentration (average plasma concentration)
readout.label: concentration at 1 h (ng/mL)
Give bare numbers, in ng/mL.

For `Cn1cc(-c2ccccc2)c(-c2cn(C)c(=O)c3[nH]c(-c4cnn(C(F)(F)F)c4)cc23)cc1=O` , write its concentration at 1 h.
28.7

====

target: BRD4 BD2 (Homo sapiens, UniProt O60885); construct: HEK293 cells were transfected using NanoLuc-BRD4-BD1 or NanoLuc-BRD4-BD2 fusion vectors; test: NanoBRET bromodomain assay, NanoLuc-BRD4-BD2 in HEK293 cells; assay type: binding; settings: IC50 BD1/IC50 BD2; qualitative if an IC50 is at the upper limit
readout.label: Fold Selectivity BRD4 BD1/BD2

Cn1cc(-c2cc(=O)n(CCN3CCOCC3)cc2-c2ccccc2)c2cc(-c3cnn(C(F)(F)F)c3)[nH]c2c1=O: xxxx (Fold >1000)
Cn1cc(-c2cc(=O)n(C3CC3)cc2-c2ccccc2)c2cc(-c3cccc(F)c3F)[nH]c2c1=O: xxxx (Fold >1000)

====

assay: Rat PK study #1 (Compound A PO, methylcellulose vs propylene glycol formulation); format: in vivo, Lewis rats; conditions: male, Lewis, rat, plasma, po, 10 mg/kg, Lewis rats, PO 10 mg/kg, 1% methylcellulose formulation, 0.25 h, mean of 3 animals
readout.label: concentration at 0.25 h (ng/mL)
Numbers only, in ng/mL.

For Cn1cc(-c2ccccc2)c(-c2cn(C)c(=O)c3[nH]c(-c4cnn(C(F)(F)F)c4)cc23)cc1=O [Compound A] , write its concentration at 0.25 h.
0.95

====

experiment: Rat PK study #2 (Compound A PO 5 mg/kg, DMSO/PEG-400/water); format: in vivo, SD rats; details: male, Sprague-Dawley, rat, plasma, po, 5 mg/kg, SD rats, PO 5 mg/kg, DMSO/PEG-400/Milli-Q water formulation, 0.5 h, mean of 3 animals
readout.label: concentration at 0.5 h (ng/mL)
Answers are plain numbers, in ng/mL.

For `Cn1cc(-c2ccccc2)c(-c2cn(C)c(=O)c3[nH]c(-c4cnn(C(F)(F)F)c4)cc23)cc1=O` , write its concentration at 0.5 h.
26.7
